Assay: qHTS of pediatric cancer cell lines to identify multiple opportunities for drug repurposing: Primary screen for NB1643 cells (AID 1347099); note: nearly all actives have a fitted effect of over 50% in size
Details: NB1643 neuroblastoma viability, CellTiter-Glo luminescence, 48 h; series mostly up to 46 µM
Protocol: Drug repurposing or repositioning has been offered as a strategy for drug development in oncology programs. This approach has special potential for childhood cancers and other rare or orphan diseases, where the expected return on new drug development has been a disincentive to pharmaceuticals. […] We employed a titration-based paradigm (quantitative high-throughput screening or qHTS), where all compounds were tested at multiple concentrations for their effect on cell viability. […]
Records with an inconclusive call do not appear. Active and inactive are the calls of the source. Calls come from the whole dose curve; as a rule, active = well fitted cell-killing curve with a large enough effect; inconclusive = small, poorly fitted or top-dose-only effect; inactive = no such curve, though single readings can be large or run the other way.
Labels: yes for active, no for inactive

[
  {
    "compound": "CC=CC1=C(C(=O)O)N2C(=O)[C@H](NC(=O)[C@H](N)c3ccc(O)cc3)[C@@H]2SC1",
    "qualitative label": "yes"
  },
  {
    "compound": "Nc1cccc(-c2cc3c(Oc4cccc(O)c4)ncnc3[nH]2)c1",
    "qualitative label": "yes"
  },
  {
    "compound": "COc1cc(Nc2ncc(F)c(Nc3ccc4c(n3)N(COP(=O)(O)O)C(=O)C(C)(C)O4)n2)cc(OC)c1OC",
    "qualitative label": "yes"
  },
  {
    "compound": "Cc1c(C)n(Cc2ccc(-c3ccccc3C(=O)O)cc2)c2ccc(C(=O)N[C@@H](C)c3ccc([N+](=O)[O-])cc3)cc12",
    "qualitative label": "yes"
  },
  {
    "compound": "CCc1c2c(nc3ccc(O)cc13)-c1cc3c(c(=O)n1C2)COC(=O)[C@]3(O)CC",
    "qualitative label": "yes"
  },
  {
    "compound": "O=C1CCC[C@@H]2[C@H]3CCC[N+]4([O-])CCC[C@@H](CN12)[C@@H]34 (some centres not stated)",
    "qualitative label": "no"
  },
  {
    "compound": "CCOc1cc2ncc(C#N)c(Nc3ccc(F)c(Cl)c3)c2cc1NC(=O)C=CCN(C)C",
    "qualitative label": "yes"
  },
  {
    "compound": "CCCCOc1c(C(=O)c2c(F)cc(C)cc2F)cnc2n[nH]cc12",
    "qualitative label": "yes"
  },
  {
    "compound": "Nc1ccn([C@@H]2CS[C@H](CO)O2)c(=O)n1",
    "qualitative label": "no"
  },
  {
    "compound": "CN(C)CC(C)(C)CNc1nn2c(-c3ccccc3)nnc2cc1C1CCC1",
    "qualitative label": "yes"
  },
  {
    "compound": "CN1CCC(CNc2ccc3ncc(-c4cccc(OC(F)(F)F)c4)n3n2)CC1",
    "qualitative label": "yes"
  },
  {
    "compound": "NC(=O)c1c(OCc2c(F)cc(Br)cc2F)nsc1NC(=O)NCCCCN1CCCC1",
    "qualitative label": "no"
  },
  {
    "compound": "Cc1nc2cnc3ccc(C#Cc4cccnc4)cc3c2n1-c1ccc(C(C)(C)C#N)cc1",
    "qualitative label": "yes"
  },
  {
    "compound": "C=CC(=O)Nc1cc2c(Nc3ccc(F)c(Cl)c3)ncnc2cc1OCCCN1CCOCC1",
    "qualitative label": "yes"
  },
  {
    "compound": "CC(C)C[C@H](NC(=O)CNC(=O)c1cc(Cl)ccc1Cl)B(O)O",
    "qualitative label": "yes"
  },
  {
    "compound": "COC(=O)C1=C(C)NC(C)=C(C(=O)OCCN2CCN(C(c3ccccc3)c3ccccc3)CC2)C1c1cccc([N+](=O)[O-])c1 (configuration not stated)",
    "qualitative label": "yes"
  },
  {
    "compound": "COc1cc2c(Oc3ccc(NC(=O)C4(C(=O)Nc5ccc(F)cc5)CC4)cc3F)ccnc2cc1OCCCN1CCOCC1",
    "qualitative label": "yes"
  },
  {
    "compound": "CC1COC2(CCN(c3nc(=O)c4cc(C(F)(F)F)cc([N+](=O)[O-])c4s3)CC2)O1 (configuration not stated)",
    "qualitative label": "no"
  },
  {
    "compound": "COc1ccc(OC)c(-c2nnc3ccc(-c4ccc(OC)c(O[C@@H]5CCOC5)c4)nn23)c1",
    "qualitative label": "yes"
  },
  {
    "compound": "COc1cc(C(=O)N2CCC(N3CCN(C)CC3)CC2)ccc1Nc1ncc2c(n1)N(C)c1ccccc1C(=O)N2C",
    "qualitative label": "yes"
  },
  {
    "compound": "COc1cccc2c(NCc3ccccc3)nc(-n3c(N)nc4ccccc43)nc12",
    "qualitative label": "yes"
  },
  {
    "compound": "CN1CCN(Cc2ccc(NC(=O)Nc3ccc(Oc4cc(NC(=O)C5CC5)ncn4)cc3)cc2C(F)(F)F)CC1",
    "qualitative label": "yes"
  },
  {
    "compound": "NC1(Cc2ccc(Cl)cc2)CCN(c2ncnc3[nH]ccc23)CC1",
    "qualitative label": "yes"
  },
  {
    "compound": "COc1cc(C(C)C)c2c(c1)S(=O)(=O)N(COc1cc(=O)n3cccc(OCCN4CCCCC4)c3n1)C2=O",
    "qualitative label": "yes"
  },
  {
    "compound": "Cc1cnc(Nc2ccc(F)cc2Cl)nc1-c1c[nH]c(C(=O)N[C@H](CO)c2cccc(Cl)c2)c1",
    "qualitative label": "yes"
  },
  {
    "compound": "C=CC(=O)Nc1cc2c(Nc3ccc(F)c(Cl)c3)ncnc2cc1C#CC(C)(C)N1CCN(C)CC1",
    "qualitative label": "yes"
  },
  {
    "compound": "CC[C@H](CO)Nc1nc(NCc2ccccc2)c2ncn(C(C)C)c2n1",
    "qualitative label": "no"
  },
  {
    "compound": "O=C(NCCS(=O)(=O)c1ccc(C(F)(F)F)cn1)c1ccc(Cl)cc1",
    "qualitative label": "no"
  },
  {
    "compound": "CN(C)CCCN=c1c2ccccc2n(C)c2[nH]c(=O)n(C)c(=O)c12",
    "qualitative label": "yes"
  },
  {
    "compound": "CNC(=O)c1c(F)cccc1Nc1nc(Nc2cc3c(cc2OC)CCN3C(=O)CN(C)C)nc2[nH]ccc12",
    "qualitative label": "yes"
  },
  {
    "compound": "Cc1cc(Nc2ncnc3ccc(-c4ccc(CNCCS(C)(=O)=O)o4)cc23)ccc1Oc1ccn2ncnc2c1",
    "qualitative label": "yes"
  },
  {
    "compound": "CC(C)c1noc(N2CCC(COc3ccc(-c4ccc(S(C)(=O)=O)cc4)nc3)CC2)n1",
    "qualitative label": "no"
  },
  {
    "compound": "CC=C1NC(=O)[C@H]2CSSCCC=C[C@H](CC(=O)N[C@H](C(C)C)C(=O)N2)OC(=O)[C@H](C(C)C)NC1=O",
    "qualitative label": "yes"
  },
  {
    "compound": "Cc1ccc(NC(=O)C2(c3ccc4c(c3)OC(F)(F)O4)CC2)nc1-c1cccc(C(=O)O)c1",
    "qualitative label": "yes"
  },
  {
    "compound": "COc1cc2c(NC3CCN(C(C)C)CC3)nc(C3CCCCC3)nc2cc1OCCCN1CCCC1",
    "qualitative label": "yes"
  },
  {
    "compound": "Cc1cc(Nc2cc(N3CCN(C)CC3)nc(C=Cc3ccccc3)n2)n[nH]1",
    "qualitative label": "yes"
  },
  {
    "compound": "CC(C)(C)c1cc(NC(=O)Nc2ccc(-c3cn4c(n3)sc3cc(OCCN5CCOCC5)ccc34)cc2)no1",
    "qualitative label": "no"
  }
]
